The measured values listed here are drawn from patent US8138191B2.

- experimentSummary: B-A Permeability (TC7, pH 7.4/7.4) + verapamil
- Assay type: in vitro ADME
- appliedConditions: human, Caco-2, pH 7.4, with verapamil (concentration not stated), 1.0E−05 M, 2nd determination, read-out: Percent Recovery 2nd
endpointName: recovery at 10 µM (%)
Numbers only; they are read as %.

Task: Quick one: recovery at 10 µM of "S=C(N/N=C1/CCCc2cccnc21)N1CCN(c2ccccn2)CC1" ?
Output: 46

---

- experimentSummary: in vitro
- Type: in vitro ADME
- appliedConditions: human, % Recovery Mean
endpointName: recovery at 10 µM (%)
Provide the reading as a plain figure in %.

Task: Consider the compound shown here: "S=C(N/N=C1/CCCc2cccnc21)N1CCN(c2ccccn2)CC1" What is its recorded recovery at 10 µM?
Output: 4.8
